# tested.on: T1, DLG3_2, Q92796
# T1 sequence (Q92796 221-321, limits assumed, looked up): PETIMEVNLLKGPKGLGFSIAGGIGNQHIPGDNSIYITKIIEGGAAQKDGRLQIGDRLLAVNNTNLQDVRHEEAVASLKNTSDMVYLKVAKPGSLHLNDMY
# assay.protocol: holdup assay
# Set-up: key: below the threshold = too weak to quantify, mostly under pKd 3.1 to 4
# measurement.context: plain residues with an end cap or a label only (N-terminal biotin on a linker: ado-ado)
reported.metric: pKd

binder | pKd
PSVGSKKTVL [REELD1, A0A1B0GV85] | below the threshold
DDASLPVSDV [PLEKHA1, Q9HB21] | below the threshold
KKMLQRRTLL [OR8G1, Q15617] | below the threshold
AEASVACSLC [PTGIR, P43119] | 3.69
PYPTADHMLA [JUP, P14923] | 4.05

// moving on: another record for pKd
pKd for EIPAQSPTCV [FZD10, Q9ULW2] ?
3.88
